# Tested on: P388 leukemia ip, CD2F1 mice, survival T/C
# experiment description: NCI In Vivo Anticancer Drug Screen. Data for tumor model P388 Leukemia (intraperitoneal) in CD2F1 (CDF1) mice
# condition label: endpoint: median survival time; dose: 200.0 mg/kg/injection; schedule: Q01DX005 (ip); vehicle: saline with Tween-80; higher = longer survival
Inconclusive results and toxic doses are left out.
Recorded T/C by entry

Observe how each entry below is paired with its result.
Exercise: Provide value of T/C for this record tested with P388 leukemia ip, CD2F1 mice, survival T/C: c1cncc(-c2c3ccccc3cc3ccc4ccccc4c23)c1
Solution: 100 % of control

Exercise: Provide value of T/C for this record tested with P388 leukemia ip, CD2F1 mice, survival T/C: C[Si](C)(C)C#CCO
Solution: 105 % of control

Exercise: Provide value of T/C for this record tested with P388 leukemia ip, CD2F1 mice, survival T/C: ON(C(=S)Nc1ccc(Cl)cc1)c1ccccc1
Solution: 97 % of control

Exercise: Provide value of T/C for this record tested with P388 leukemia ip, CD2F1 mice, survival T/C: Nc1nnc2nc(C(C(=O)c3ccc(F)cc3)c3nc4nnc(N)n4[nH]c3=O)c(=O)[nH]n12
Solution: 91 % of control

Exercise: Provide value of T/C for this record tested with P388 leukemia ip, CD2F1 mice, survival T/C: C/C(=N\N=C(/[Se])N1CCC(C)CC1)c1ccccn1
Solution: 100 % of control

Exercise: Provide value of T/C for this record tested with P388 leukemia ip, CD2F1 mice, survival T/C: CC(=O)N(C)c1ccc(Nc2ccc(Nc3ccc(N(C)C(C)=O)cc3)c3c2C(=O)c2ccccc2C3=O)cc1
Solution: 99 % of control

Exercise: Provide value of T/C for this record tested with P388 leukemia ip, CD2F1 mice, survival T/C: ClSC(c1ccccc1)(c1ccccc1)c1ccccc1
Solution: 94 % of control

Exercise: Provide value of T/C for this record tested with P388 leukemia ip, CD2F1 mice, survival T/C: CN1c2ccccc2S(=O)(=O)n2c(COc3ccccc3)nnc21
Solution: 88 % of control

Exercise: Provide value of T/C for this record tested with P388 leukemia ip, CD2F1 mice, survival T/C: O=C(/C=C/c1ccc(O)c(O)c1)NCC(=O)NC(Cc1ccccc1)C(=O)O (stereo unspecified)
Solution: 103 % of control

Exercise: Provide value of T/C for this record tested with P388 leukemia ip, CD2F1 mice, survival T/C: Cc1cccc(/C=N/Nc2nc3ccccc3s2)n1
Solution: 99 % of control

Here is the next item to consider.
Exercise: Provide value of T/C for this record tested with P388 leukemia ip, CD2F1 mice, survival T/C: COc1ccc(-c2cc(C(=O)Nc3cc(C(F)(F)F)cc(C(F)(F)F)c3)c3ccccc3n2)cc1
Solution: 93 % of control
